target: Cow milk Xanthine Oxidase (Bos taurus)
Sequence (P80457 whole entry): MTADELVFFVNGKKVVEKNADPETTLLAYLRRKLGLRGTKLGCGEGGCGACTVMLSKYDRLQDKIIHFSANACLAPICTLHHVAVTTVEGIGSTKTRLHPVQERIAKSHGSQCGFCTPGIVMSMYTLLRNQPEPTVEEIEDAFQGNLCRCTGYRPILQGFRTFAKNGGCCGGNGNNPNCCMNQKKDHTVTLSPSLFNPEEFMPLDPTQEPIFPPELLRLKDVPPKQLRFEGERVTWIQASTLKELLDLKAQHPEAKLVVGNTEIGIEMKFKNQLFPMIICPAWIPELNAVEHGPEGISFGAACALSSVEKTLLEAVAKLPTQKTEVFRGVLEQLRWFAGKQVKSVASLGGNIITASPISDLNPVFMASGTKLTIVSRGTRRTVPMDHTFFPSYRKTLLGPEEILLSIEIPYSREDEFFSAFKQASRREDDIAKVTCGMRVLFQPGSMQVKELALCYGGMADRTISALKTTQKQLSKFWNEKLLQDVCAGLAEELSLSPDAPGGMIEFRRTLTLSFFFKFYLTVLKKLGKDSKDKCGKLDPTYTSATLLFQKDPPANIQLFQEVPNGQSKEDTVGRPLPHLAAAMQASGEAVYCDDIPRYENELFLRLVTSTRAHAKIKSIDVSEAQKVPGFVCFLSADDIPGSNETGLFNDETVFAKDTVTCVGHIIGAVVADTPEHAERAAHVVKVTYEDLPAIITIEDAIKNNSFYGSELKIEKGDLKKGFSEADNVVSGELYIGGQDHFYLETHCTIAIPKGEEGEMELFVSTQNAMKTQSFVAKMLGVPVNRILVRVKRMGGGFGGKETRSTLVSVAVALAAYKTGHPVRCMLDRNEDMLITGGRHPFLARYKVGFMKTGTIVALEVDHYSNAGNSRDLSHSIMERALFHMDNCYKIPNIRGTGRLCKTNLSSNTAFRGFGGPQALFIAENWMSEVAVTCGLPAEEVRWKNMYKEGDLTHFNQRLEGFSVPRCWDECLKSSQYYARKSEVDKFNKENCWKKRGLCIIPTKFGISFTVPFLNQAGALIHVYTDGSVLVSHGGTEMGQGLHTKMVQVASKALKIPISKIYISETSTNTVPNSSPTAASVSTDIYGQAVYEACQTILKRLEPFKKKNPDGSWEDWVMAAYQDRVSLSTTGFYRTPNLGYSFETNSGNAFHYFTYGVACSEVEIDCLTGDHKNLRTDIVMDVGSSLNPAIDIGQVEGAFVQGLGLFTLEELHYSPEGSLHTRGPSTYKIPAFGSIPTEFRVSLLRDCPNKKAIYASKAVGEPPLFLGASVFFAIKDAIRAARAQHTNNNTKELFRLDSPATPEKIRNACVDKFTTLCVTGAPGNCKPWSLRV
Exam item: assign class 1 to entries whose IC50 is below 0.1 µM and class 0 to entries at or above 0.1 µM. Note that a value of exactly 0.1 µM receives class 0.

>>> class_label("N#Cc1cc(-c2nc3cncnc3s2)ccc1Oc1ccc(O)cc1")
"class 1"
>>> class_label("C=CCOc1ccc(-c2nc3cncnc3s2)cc1C#N")
"class 0"
>>> class_label("N#Cc1cc(-c2nc3cncnc3s2)ccc1Sc1ccccc1")
"class 0"
>>> class_label("N#Cc1cc(-c2nc3cncnc3s2)ccc1Oc1ccc(Cl)cc1")
"class 0"

---

# reported melting point; entries follow
observation.type: melting point

>>> result("C=CCOc1ccc(-c2nc3cncnc3s2)cc1C#N")
"202.6 to 207.6 °C"
>>> result("N#Cc1cc(-c2nc3cncnc3s2)ccc1Sc1ccc(F)cc1")
"190 to 195 °C"
>>> result("N#Cc1cc(-c2nc3cncnc3s2)ccc1Sc1cccc(F)c1")
"189 to 190 °C"
>>> result("N#Cc1cc(-c2nc3cncnc3s2)ccc1Oc1cccc(Cl)c1")
"171 to 173 °C"
>>> result("N#Cc1cc(-c2nc3cncnc3[nH]2)ccc1Oc1ccc(F)cc1")
"> 250 °C"
>>> result("N#Cc1cc(-c2nc3cncnc3s2)ccc1Oc1ccccc1Cl")
"209 to 211 °C"
>>> result("N#Cc1cc(-c2nc3cncnc3s2)ccc1N1CCSCC1")
"170 to 175 °C (dec.)"
>>> result("N#Cc1cc(-c2nc3cncnc3s2)ccc1Sc1ccccc1")
"173 to 176 °C"
>>> result("CN1CCN(c2ccc(-c3nc4cncnc4s3)cc2C#N)CC1")
"163 to 165 °C (dec.)"
>>> result("N#Cc1cc(-c2nc3cncnc3s2)ccc1Oc1ccccc1N")
"256 to 259 °C (dec.)"
